test: Nephrotoxicity in human HK2 cells assessed as LDH release at 1 uM measured after 24 hrs
Format: toxicity, cell-based
run.parameters: hk-2, 24 h
measured.parameter: Activity
Include the unit after the number when you answer.

**Query** Quick check: Activity of CC(C)Cc1ccc(C(C)C(=O)OCCCOP(=O)(COCCn2cnc3c(N)ncnc32)OCCOC(=O)[C@@H](N)C(C)C)cc1 (some centres not stated) ?
**Result** 35.41%

**Query** Please answer likewise for CC[C@H](C)[C@H](N)C(=O)OCCOP(=O)(COCCn1cnc2c(N)ncnc21)OCCCOC(=O)C(C)c1ccc(-c2ccccc2)c(F)c1 (some centres not stated)
**Result** 35.89%

**Query** Please answer likewise for CC(C)(C)C(=O)OCOP(=O)(COCCn1cnc2c(N)ncnc21)OCOC(=O)C(C)(C)C
**Result** 42.32%

**Query** Please answer likewise for CC[C@H](C)[C@H](N)C(=O)OCCOP(=O)(COCCn1cnc2c(N)ncnc21)OCCCOC(=O)C(C)c1ccc(CC(C)C)cc1 (some centres not stated)
**Result** 36.25%

**Query** Please answer likewise for CC[C@H](C)[C@H](N)C(=O)OCCOP(=O)(COCCn1cnc2c(N)ncnc21)OCCCOC(=O)C(C)c1cccc(C(=O)c2ccccc2)c1 (some centres not stated)
**Result** 37.85%

**Query** Please answer likewise for CC(C(=O)OCCCOP(=O)(COCCn1cnc2c(N)ncnc21)OCCOC(=O)[C@@H](N)C(C)C)c1cccc(C(=O)c2ccccc2)c1 (some centres not stated)
**Result** 37.63%

**Query** Please answer likewise for CC(C(=O)OCCCOP(=O)(COCCn1cnc2c(N)ncnc21)OCCOC(=O)[C@@H](N)Cc1ccccc1)c1ccc(-c2ccccc2)c(F)c1 (some centres not stated)
**Result** 34.68%

* * *

test: Half life in rat plasma at 0.2 mg after 24 hrs by HPLC analysis
Type: ADME
measured.parameter: half-life (min)
Report the figure in min without appending any unit label.

**Query** Quick check: half-life of CC[C@H](C)[C@H](N)C(=O)OCCOP(=O)(COCCn1cnc2c(N)ncnc21)OCCCOC(=O)C(C)c1ccc(CC(C)C)cc1 (stereo partly specified) ?
**Result** 45

**Query** Please answer likewise for CC(C(=O)OCCCOP(=O)(COCCn1cnc2c(N)ncnc21)OCCOC(=O)[C@@H](N)Cc1ccccc1)c1ccc(-c2ccccc2)c(F)c1 (stereo partly specified)
**Result** 123

**Query** Please answer likewise for CC(C)Cc1ccc(C(C)C(=O)OCCCOP(=O)(COCCn2cnc3c(N)ncnc32)OCCOC(=O)[C@@H](N)C(C)C)cc1 (stereo partly specified)
**Result** 90

**Query** Please answer likewise for CC(C(=O)OCCCOP(=O)(COCCn1cnc2c(N)ncnc21)OCCOC(=O)[C@@H](N)C(C)C)c1cccc(C(=O)c2ccccc2)c1 (stereo partly specified)
**Result** 165

**Query** Please answer likewise for CC(C)(C)C(=O)OCOP(=O)(COCCn1cnc2c(N)ncnc21)OCOC(=O)C(C)(C)C
**Result** 31.2

**Query** Please answer likewise for CC[C@H](C)[C@H](N)C(=O)OCCOP(=O)(COCCn1cnc2c(N)ncnc21)OCCCOC(=O)C(C)c1ccc(-c2ccccc2)c(F)c1 (stereo partly specified)
**Result** 210

* * *

Would you kindly list degraded at 24 h, 1000 µM for each of these compounds?
test: Chemical stability of the compound assessed as drug decomposition at 1 mM in phosphate buffer at pH 7.4 after 24 hrs by HPLC analysis
Format: physicochemical
run.parameters: read-out: Drug degradation
Report the figure in % without appending any unit label.

**Query** Quick check: degraded at 24 h, 1000 µM of CC[C@H](C)[C@H](N)C(=O)OCCOP(=O)(COCCn1cnc2c(N)ncnc21)OCCCOC(=O)C(C)c1ccc(-c2ccccc2)c(F)c1 (stereo partly drawn) ?
**Result** 12.6

**Query** Please answer likewise for CC(C)(C)C(=O)OCOP(=O)(COCCn1cnc2c(N)ncnc21)OCOC(=O)C(C)(C)C
**Result** 39.1

**Query** Please answer likewise for CC(C(=O)OCCCOP(=O)(COCCn1cnc2c(N)ncnc21)OCCOC(=O)[C@@H](N)C(C)C)c1cccc(C(=O)c2ccccc2)c1 (stereo partly drawn)
**Result** 8.3

* * *

test: Nephrotoxicity in human HK2 cells assessed as LDH release at 100 uM measured after 24 hrs
Format: toxicity, cell-based
run.parameters: hk-2, 24 h
Would you kindly list Activity for each of these molecules?
Report the figure in % without appending any unit label.

**Query** Quick check: Activity of CC(C(=O)OCCCOP(=O)(COCCn1cnc2c(N)ncnc21)OCCOC(=O)[C@@H](N)C(C)C)c1cccc(C(=O)c2ccccc2)c1 (stereo partly drawn) ?
**Result** 44.9

**Query** Please answer likewise for CC(C)(C)C(=O)OCOP(=O)(COCCn1cnc2c(N)ncnc21)OCOC(=O)C(C)(C)C
**Result** 50.02

**Query** Please answer likewise for CC[C@H](C)[C@H](N)C(=O)OCCOP(=O)(COCCn1cnc2c(N)ncnc21)OCCCOC(=O)C(C)c1cccc(C(=O)c2ccccc2)c1 (stereo partly drawn)
**Result** 43.51

* * *

Would you kindly list CC50 for each of these molecules?
test: Cytotoxicity against human HK2 cells by MTT assay
Format: cell-based, HK-2
Report the figure in µM without appending any unit label.

**Query** Quick check: CC50 of CC[C@H](C)[C@H](N)C(=O)OCCOP(=O)(COCCn1cnc2c(N)ncnc21)OCCCOC(=O)C(C)c1cccc(C(=O)c2ccccc2)c1 (some centres undefined) ?
**Result** 768

**Query** Please answer likewise for CC(C(=O)OCCCOP(=O)(COCCn1cnc2c(N)ncnc21)OCCOC(=O)[C@@H](N)Cc1ccccc1)c1ccc(-c2ccccc2)c(F)c1 (some centres undefined)
**Result** 906

* * *

Would you kindly list EC50 for each of these compounds?
System: Hepatitis B virus
test: Antiviral activity against Hepatitis B virus infected in human HepG2(2.2.15) cells assessed as inhibition of viral replication incubated for 2 days followed by wash out measured after 10 days by RT-PCR analysis
Assay type: functional, organism-based
Report the figure in µM without appending any unit label.

**Query** Quick check: EC50 of CC[C@H](C)[C@H](N)C(=O)OCCOP(=O)(COCCn1cnc2c(N)ncnc21)OCCCOC(=O)C(C)c1ccc(-c2ccccc2)c(F)c1 (some centres not stated) ?
**Result** 2.26

**Query** Please answer likewise for CC[C@H](C)[C@H](N)C(=O)SCCCOP(=O)(COCCn1cnc2c(N)ncnc21)OCCCOC(=O)C(C)c1ccc(-c2ccccc2)c(F)c1 (some centres not stated)
**Result** 36.7

**Query** Please answer likewise for CC(C(=O)OCCCOP(=O)(COCCn1cnc2c(N)ncnc21)OCCOC(=O)[C@@H](N)Cc1ccccc1)c1ccc(-c2ccccc2)c(F)c1 (some centres not stated)
**Result** 3.34

**Query** Please answer likewise for CC[C@H](C)[C@H](N)C(=O)SCCCOP(=O)(COCCn1cnc2c(N)ncnc21)OCCCOC(=O)C(C)c1ccc(CC(C)C)cc1 (some centres not stated)
**Result** 50

**Query** Please answer likewise for CC(C(=O)OCCCOP(=O)(COCCn1cnc2c(N)ncnc21)OCCCSC(=O)[C@@H](N)Cc1ccccc1)c1ccc(-c2ccccc2)c(F)c1 (some centres not stated)
**Result** 48.9

**Query** Please answer likewise for CC(C(=O)OCCCOP(=O)(COCCn1cnc2c(N)ncnc21)OCCCSC(=O)[C@@H](N)Cc1ccccc1)c1cccc(C(=O)c2ccccc2)c1 (some centres not stated)
**Result** 29.8

**Query** Please answer likewise for CC(C)(C)C(=O)OCOP(=O)(COCCn1cnc2c(N)ncnc21)OCOC(=O)C(C)(C)C
**Result** 0.96

* * *

test: Nephrotoxicity in human HK2 cells assessed as LDH release at 10 uM measured after 24 hrs
Type: toxicity, cell-based
run.parameters: hk-2, 24 h
Would you kindly list Activity for each of these compounds?
Report the figure in % without appending any unit label.

**Query** Quick check: Activity of CC[C@H](C)[C@H](N)C(=O)OCCOP(=O)(COCCn1cnc2c(N)ncnc21)OCCCOC(=O)C(C)c1ccc(CC(C)C)cc1 (some centres not stated) ?
**Result** 36.67

**Query** Please answer likewise for CC(C(=O)OCCCOP(=O)(COCCn1cnc2c(N)ncnc21)OCCOC(=O)[C@@H](N)Cc1ccccc1)c1ccc(-c2ccccc2)c(F)c1 (some centres not stated)
**Result** 35.95

**Query** Please answer likewise for CC(C)(C)C(=O)OCOP(=O)(COCCn1cnc2c(N)ncnc21)OCOC(=O)C(C)(C)C
**Result** 47.49

**Query** Please answer likewise for CC(C(=O)OCCCOP(=O)(COCCn1cnc2c(N)ncnc21)OCCOC(=O)[C@@H](N)C(C)C)c1cccc(C(=O)c2ccccc2)c1 (some centres not stated)
**Result** 38.72

**Query** Please answer likewise for CC(C)Cc1ccc(C(C)C(=O)OCCCOP(=O)(COCCn2cnc3c(N)ncnc32)OCCOC(=O)[C@@H](N)C(C)C)cc1 (some centres not stated)
**Result** 36.25

**Query** Please answer likewise for CC[C@H](C)[C@H](N)C(=O)OCCOP(=O)(COCCn1cnc2c(N)ncnc21)OCCCOC(=O)C(C)c1cccc(C(=O)c2ccccc2)c1 (some centres not stated)
**Result** 36.92

**Query** Please answer likewise for CC[C@H](C)[C@H](N)C(=O)OCCOP(=O)(COCCn1cnc2c(N)ncnc21)OCCCOC(=O)C(C)c1ccc(-c2ccccc2)c(F)c1 (some centres not stated)
**Result** 36.95

# credit: ChEMBL document CHEMBL1944632
